Values were extracted from patent US20240108746A1.

# tested_system: T1, Biotinylated CD3-specific binding domain SEQ ID NO: 13 (biotinylated (site not stated))
# T1 construct: Ligand on the neutravidin (NLC) SPR chip; The same domain is the CD3-specific domain of TCE #1
# T1 chain: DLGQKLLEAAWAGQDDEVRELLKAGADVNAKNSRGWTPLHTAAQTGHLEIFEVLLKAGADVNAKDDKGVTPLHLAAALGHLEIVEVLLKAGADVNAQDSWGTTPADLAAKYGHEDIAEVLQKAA
# experiment_description: SPR (ProteOn XPR36), 33 C, multi-trace; biotinylated ligand on chip, binder as analyte
Readings of kon for the listed binders

binder	kon / M⁻¹ s⁻¹
Binder #2 (designed binder) MRGSHHHHHHGSDLGKKLLQAARAGQLDEVRELLKAGADVNAKDFKGLTPLHLAAAHGHLEIVEVLLKAGADVNAKDVYGWTPLHWAAASGHLEIVEVLLKAGADVNAKDWLGITPLHLAASHGHLEIVEVLLKAGADVNAQDKSGKTPADLAARAGHQDIAEVLQKAA	1.43e+06
Binder #4 (designed binder) MRGSHHHHHHGSDLGKKLLQAARAGQLDEVRELLKAGADVNAKDFKGLTPLHLAAEHGHLEIVEVLLKAGADVNAKDVYGWTPLHWAAAKGHLEIVEVLLKAGADVNAKDWLGITPLHLAASHGHLEIVEVLLKAGADVNAQDKSGKTPADLAARAGHQDIAEVLQKAA	1.74e+06
Binder #3 (designed binder) MRGSHHHHHHGSDLGKKLLQAARAGQLDEVRELLKAGADVNAKDFKGLTPLHLAAAHGHLEIVEVLLKAGADVNAKDVYGWTPLHWAAAKGHLEIVEVLLKAGADVNAKDWLGITPLHLAASHGHLEIVEVLLKAGADVNAQDKSGKTPADLAARAGHQDIAEVLQKAA	1.7e+06
Binder #1 (designed binder, expressed in E. coli and purified by its His-tag) MRGSHHHHHHGSDLGKKLLQAARAGQLDEVRELLKAGADVNAKDFKGLTPLHLAAAHGHLEIVEVLLKAGADVNAKDVYGWTPLHIAAASGHLEIVEVLLKAGADVNAKDWLGITPLHLAASHGHLEIVEVLLKAGADVNAQDKSGKTPADLAARAGHQDIAEVLQKAA	1.54e+06
